B1: MEF2-activating motif and SAP domain-containing transcriptional regulator, residues 170 to 204; numbered along this chain, Q6ZN01 (parent)
chain: LKLEELTVSELRQQLRLRGLPVSGTKSMLLERMRG

Variants of: B1
Assay: abundance fitness (aPCA) (normalised: wild type 0, dead -1); higher = more abundant; growth selection in yeast, the domain comes from the species named
Details: Homo sapiens
Metric name: abundance fitness

Record excerpt, results attached:
>>> print(df.to_string())
    mut        metric_name  result
0   K2E  abundance fitness   0.007
1  R16L  abundance fitness  -0.027
2  E31C  abundance fitness  -0.745
3  M28W  abundance fitness  -0.839
4  L11H  abundance fitness  -0.811

Req: Entry L3V : reported abundance fitness = ?
Resp: -0.272

Req: Consider the variant V22L and give its measured abundance fitness.
Resp: -0.209

Req: // returns reported abundance fitness for input L11W
Resp: -0.897

Req: What measured abundance fitness goes with R32S ?
Resp: -0.483

Req: Entry under review: E4D . Reported abundance fitness?
Resp: -0.035

Req: I'd like to know its abundance fitness. The variant in question is R12D
Resp: -0.488

Req: Endpoint output: abundance fitness of P21E . Value?
Resp: -0.036

Req: Quick one: abundance fitness of L6I ?
Resp: -0.266
